# ASSAY_NOTES: Plasma clearance in Sprague-Dawley rat at 1 mg/kg, iv or 3 mg/kg, po
# Format: ADME, organism-based
QUANTITY_KIND: clearance (mL/min/kg)

Observe how each entry below is paired with its result.
CC(C)N1C(=O)[C@H](NC(=O)[C@@H](Cc2ccccc2F)NC(=O)c2ccc(F)cc2C(F)(F)F)CCc2cc(Cl)ccc21 : 44
CC(C)N1C(=O)[C@H](NC(=O)[C@@H](Cc2cc(F)ccc2F)NC(=O)c2ccc(F)cc2C(F)(F)F)CCc2cc(Cl)ccc21 : 32
CC(C)N1C(=O)[C@H](NC(=O)[C@@H](Cc2c(F)cccc2F)NC(=O)c2ccc(F)cc2C(F)(F)F)CCc2cc(Cl)ccc21 : 19
CC(C)N1C(=O)C(NC(=O)[C@@H](Cc2ccccc2OC(F)(F)F)NC(=O)OC(C)(C)C)CCc2cccnc21 (stereo in doubt; 25) : 24

1: CC(C)N1C(=O)[C@H](NC(=O)[C@@H](Cc2ccccc2OC(F)(F)F)NC(=O)C(C)(C(F)(F)F)C(F)(F)F)CCc2ccccc21
2: CC(C)N1C(=O)[C@H](NC(=O)[C@@H](Cc2ccccc2OC(F)(F)F)NC(=O)OC(C)(C)C)CCc2cc(Cl)ccc21
3: CC(C)N1C(=O)[C@H](NC(=O)[C@@H](Cc2ccccc2OC(F)(F)F)NC(=O)c2ccccn2)CCc2ccccc21
Arrange items by their clearance values in increasing order. List the labels in the requested order.
2, 1, 3

// data source = ChEMBL document CHEMBL1140523
